# measurement.target: human factor Xa (Enzyme Research Laboratories, Inc.) (human) (UniProt P00742)
# Sequence (P00742 41-179 limits assumed, chain 1 of 2): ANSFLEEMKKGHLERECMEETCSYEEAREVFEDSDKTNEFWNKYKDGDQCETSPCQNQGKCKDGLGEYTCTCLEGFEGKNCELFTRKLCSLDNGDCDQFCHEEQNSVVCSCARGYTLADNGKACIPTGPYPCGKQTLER
# Sequence (P00742 235-488 limits assumed, chain 2 of 2): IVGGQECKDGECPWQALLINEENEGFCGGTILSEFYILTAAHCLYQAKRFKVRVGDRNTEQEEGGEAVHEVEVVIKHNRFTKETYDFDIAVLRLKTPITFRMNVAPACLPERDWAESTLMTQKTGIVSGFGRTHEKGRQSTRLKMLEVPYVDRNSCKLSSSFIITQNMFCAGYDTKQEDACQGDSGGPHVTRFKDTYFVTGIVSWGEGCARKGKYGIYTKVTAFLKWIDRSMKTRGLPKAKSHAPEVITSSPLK
# experiment.notes: chromogenic enzyme inhibition, IC50 corrected for substrate
quantity: Ki (µM)

[
  {
    "substance": "TENSTOP (N-alpha-tosyl-Gly-p-amidinophenylalanine methyl ester)",
    "measurement.target": "human factor Xa (Enzyme Research Laboratories, Inc.) (human) (UniProt P00742)",
    "quantity": "Ki",
    "recorded.value": 2
  }
]

###

# measurement.target: human thrombin (Enzyme Research Laboratories, Inc.) (human)
# experiment.notes: chromogenic enzyme inhibition, IC50 corrected for substrate
pKi: −log10 of the molar value.

[
  {
    "substance": "TENSTOP (N-alpha-tosyl-Gly-p-amidinophenylalanine methyl ester)",
    "measurement.target": "human thrombin (Enzyme Research Laboratories, Inc.) (human)",
    "pKi": 5.70
  }
]
